- Measurement target: EPHB1 (UniProt P54762)
- Sequence (P54762 whole entry, looked up): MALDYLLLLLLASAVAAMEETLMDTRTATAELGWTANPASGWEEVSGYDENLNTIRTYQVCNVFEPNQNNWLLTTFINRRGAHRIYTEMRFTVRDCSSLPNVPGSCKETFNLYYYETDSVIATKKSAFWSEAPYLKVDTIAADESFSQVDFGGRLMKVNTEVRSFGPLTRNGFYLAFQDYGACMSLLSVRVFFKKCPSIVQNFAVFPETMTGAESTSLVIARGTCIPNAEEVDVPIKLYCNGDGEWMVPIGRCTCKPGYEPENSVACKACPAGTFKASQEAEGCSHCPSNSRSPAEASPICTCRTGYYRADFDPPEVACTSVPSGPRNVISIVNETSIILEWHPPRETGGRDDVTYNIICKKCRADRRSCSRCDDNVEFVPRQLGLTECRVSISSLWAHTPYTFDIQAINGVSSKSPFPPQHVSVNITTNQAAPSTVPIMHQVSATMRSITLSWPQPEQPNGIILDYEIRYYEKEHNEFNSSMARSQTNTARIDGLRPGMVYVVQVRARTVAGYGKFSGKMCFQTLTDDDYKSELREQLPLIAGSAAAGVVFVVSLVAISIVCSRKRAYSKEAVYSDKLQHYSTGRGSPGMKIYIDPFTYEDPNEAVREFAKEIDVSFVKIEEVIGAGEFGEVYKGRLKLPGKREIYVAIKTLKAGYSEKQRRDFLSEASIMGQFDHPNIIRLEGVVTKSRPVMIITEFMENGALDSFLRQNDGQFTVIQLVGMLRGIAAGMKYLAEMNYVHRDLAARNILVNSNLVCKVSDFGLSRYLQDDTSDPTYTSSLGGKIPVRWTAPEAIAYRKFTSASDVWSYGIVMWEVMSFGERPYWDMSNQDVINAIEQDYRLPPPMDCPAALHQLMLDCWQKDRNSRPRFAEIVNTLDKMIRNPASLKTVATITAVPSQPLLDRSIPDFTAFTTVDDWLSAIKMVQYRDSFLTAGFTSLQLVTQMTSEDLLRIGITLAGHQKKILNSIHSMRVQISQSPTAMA
- Assay summary: phosphorylation enrichment, bacterial display (enrichment ratio); higher = better substrate or ligand; peptides without Tyr show the background;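 further: 11-residue human phosphosite peptides and single-mutation variants displayed on the E. coli surface, counted by deep sequencing, each peptide's frequency after selection divided by its frequency in the unselected input library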;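 further: frequency after pTyr selection over input frequency; kinase dosed for 20-30% of maximal phosphorylation in three min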
Give measured phosphorylation enrichment for each item. Keep answers brief.
Lab note: write the figure by itself, no unit.

Need phosphorylation enrichment, item SFKNKYGMVAQ [APOB_Y276_YF]
0.302

Any idea what its phosphorylation enrichment is? The sequence is ADRLEYSRTGL [MMUT_Y287_G284R]
0.309

Quick one: phosphorylation enrichment of DSILVYQGKEQ [USH2A_Y1909] ?
0.451

Returns the measured phosphorylation enrichment for the input sequence. Input: REESTYLPLTS [ICAM3_Y527]
0.88

Using the record for KIVATYRLCSE [DNAH3_Y1586] , report its phosphorylation enrichment.
0.631

Endpoint output: phosphorylation enrichment of MSNFACVKREV [SCN1A_Y1694_Y1694C] . Value?
0.49

What value of phosphorylation enrichment has been recorded for this entry: ESDFPYSSSFE [SRPK2_Y427_T426P_YF]
0.437

phosphorylation enrichment lookup needed for NVTRKYSRQIL [MAP3K2_Y463_T464S] , thanks.
0.356

Which phosphorylation enrichment value belongs to GDKENYGLPQP [BUB1_Y538_N534D] ?
0.509

Sample FEGHSYSACTT [MMP9_Y241_R239H] — what was its phosphorylation enrichment?
0.617

State the recorded phosphorylation enrichment for this entry: GGGGGYNRSSG [FUS_Y232]
0.57

Which measured phosphorylation enrichment value corresponds to KAIMTYVPSFF [ACTN4_Y260_S262P_YF] ?
0.61

So what does the record say about phosphorylation enrichment for KDKLPYPFDDP [GPX2_Y125_YF] ?
0.457

If you can, please state the reported phosphorylation enrichment value of QRNEEYCLLDS [ITK_Y198_R193Q] .
1.11

Report phosphorylation enrichment for KTTGGYAGGLS [KRT8_Y419_S417G] please.
0.34

Consider the sequence QSHKVYFQHLL [POR_Y604_V605F] and give its measured phosphorylation enrichment.
0.671

What measured phosphorylation enrichment goes with RPQDGYRIVQH [PTPRT_Y1329] ?
0.406

If you can, please state the reported phosphorylation enrichment value of KPPFSYNALIR [FOXG1_Y186_M191R] .
0.478

Look at this sequence and give its reported phosphorylation enrichment. GIVKAYFVRAR [AIPL1_Y267_YF]
0.445

State the recorded phosphorylation enrichment for this entry: METKGYHSLPE [NR3C2_Y6]
0.48

Entry IGERTYGQVYK [CDK13_Y716_G714R] has what phosphorylation enrichment?
0.409

# query: phosphorylation enrichment of entry GHGEEYPVAGA [NOTCH3_Y2221_A2223V]
0.451

Value lookup for phosphorylation enrichment; key = RTESQYQENRG [LRCH3_Y354_R350T]
0.675

Query (sequence): VEDQYYCVDCY [FHL1_Y208] ; field requested: phosphorylation enrichment
1.02

Query: phosphorylation enrichment; subject: VQEDIYDEFVE [ALDH2_Y332]
0.728

Need phosphorylation enrichment, item RFLERDIFNRE [HLA-DPB1_Y57_Y57D_YF]
0.769

Fill in the blank: the reported phosphorylation enrichment of DVSVVCSEVKT [FCRL4_Y493_Y493C] is ____.
0.617

Suppose we examine the sequence IHSGIYYKPES [L2HGDH_Y102] ; what phosphorylation enrichment value has been reported?
3.93

Recorded phosphorylation enrichment of VLNKGYRMVVN [HINT1_Y94_G89V] , please.
0.362
